target: PD-1/PD-L1 interaction (Homo sapiens, UniProt Q9NZQ7); construct: expressed in transfected cells; host or cells: CHO cells (aAPC-PD-L1) co-cultured with Jurkat cells overexpressing PD-1 and an NFAT-luciferase reporter; experiment: PD-1/PD-L1 NFAT reporter co-culture assay; format: cell-based; details: Jurkat PD-1 NFAT-luciferase cells co-cultured with aAPC-PD-L1 CHO cells, 6 hrs at 37° C.; read-out: EC50 NFAT Luciferase
Sequence (Q9NZQ7 19-290): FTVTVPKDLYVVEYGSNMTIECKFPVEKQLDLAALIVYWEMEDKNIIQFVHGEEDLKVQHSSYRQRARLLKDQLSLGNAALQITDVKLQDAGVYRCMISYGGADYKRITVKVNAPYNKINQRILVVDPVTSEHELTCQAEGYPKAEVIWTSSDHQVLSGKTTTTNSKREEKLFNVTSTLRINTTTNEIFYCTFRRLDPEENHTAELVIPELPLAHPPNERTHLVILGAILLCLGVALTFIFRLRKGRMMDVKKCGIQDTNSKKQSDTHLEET
Reported pEC50 values are given for each entry in this list.
Please report pEC50 as the negative decimal logarithm of the molar concentration, giving only the number.

For this compound ( COc1nc(OCc2cccc(-c3cccc(-c4ccc5c(c4)C[C@@H](N)C5)c3Cl)c2Cl)c(Br)cc1CN[C@@](C)(CO)C(=O)O [Example 435] ), measured pEC50 is 6.50

For this compound ( Cc1c(COc2cc(OCc3cncc(C#N)c3)c(CN[C@@](C)(CO)C(=O)O)cc2Cl)cccc1-c1cccc(Nc2nccc3cc(CNCCO)cnc23)c1C [Example 557] ), measured pEC50 is 6.87

For this compound ( COc1nc(O[C@H]2CCc3c(-c4cccc(-c5cc(C)c(CNC[C@@H]6CCC(=O)N6)c(OC)n5)c4Cl)cccc32)c(Cl)cc1CN1CC[C@H](C(=O)O)C1 [Example 491] ), measured pEC50 is 7.68
